meta.source: patent US6306860A

Would you kindly list inhibition at 1 µg/mL for each of these compounds?
target: HBV polymerase (Hepatitis B virus genotype D subtype ayw); construct: made in house; host or cells: E. coli; assay: Inhibitory activities against HBV polymerase (reverse transcriptase activity) in vitro; assay type: biochemical; conditions: 1 μg/ml; read-out: Inhibitory activity of HBV-RT (%)
Sequence (P03156 whole entry): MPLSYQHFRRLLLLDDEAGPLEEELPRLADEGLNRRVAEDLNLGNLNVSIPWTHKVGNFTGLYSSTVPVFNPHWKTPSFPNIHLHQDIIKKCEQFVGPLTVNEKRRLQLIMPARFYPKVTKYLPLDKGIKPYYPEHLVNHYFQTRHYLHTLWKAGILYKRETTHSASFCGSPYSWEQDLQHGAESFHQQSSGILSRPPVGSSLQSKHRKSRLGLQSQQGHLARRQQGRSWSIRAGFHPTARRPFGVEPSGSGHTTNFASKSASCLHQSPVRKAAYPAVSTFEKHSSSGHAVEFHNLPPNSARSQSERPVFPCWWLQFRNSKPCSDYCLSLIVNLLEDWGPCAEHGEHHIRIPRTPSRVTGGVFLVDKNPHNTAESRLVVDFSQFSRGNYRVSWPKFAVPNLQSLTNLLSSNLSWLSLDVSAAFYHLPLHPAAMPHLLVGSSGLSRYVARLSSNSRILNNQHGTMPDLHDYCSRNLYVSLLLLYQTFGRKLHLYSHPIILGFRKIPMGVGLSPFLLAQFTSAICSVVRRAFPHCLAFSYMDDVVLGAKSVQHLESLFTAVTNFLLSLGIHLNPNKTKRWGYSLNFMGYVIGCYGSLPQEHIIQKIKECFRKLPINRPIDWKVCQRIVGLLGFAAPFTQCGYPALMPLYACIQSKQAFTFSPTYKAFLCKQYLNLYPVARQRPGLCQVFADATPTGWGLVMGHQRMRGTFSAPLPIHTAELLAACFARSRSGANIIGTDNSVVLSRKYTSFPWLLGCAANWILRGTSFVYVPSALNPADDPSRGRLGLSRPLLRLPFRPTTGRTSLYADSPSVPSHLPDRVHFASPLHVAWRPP
Use % as the unit, but write only the number.

## Task Give the measured inhibition at 1 µg/mL for COC(CNC(=O)c1ccc(C(=O)N2CCN(CCO)CC2)nc1)OC [Exam. 101]
## Result 85

## Task Give the measured inhibition at 1 µg/mL for CC(C)Nc1cccnc1N1CCN(C(=O)c2ccc(C(=O)N(CCO)CCO)cn2)CC1 [Exam. 16]
## Result 70

## Task Give the measured inhibition at 1 µg/mL for CC(C)CNC(=O)c1ccc(C(=O)N2CCN(CCO)CC2)nc1 [Exam. 88]
## Result 81
